Provenance of the data: paper PMC12679539

# Tested on: L. infantum promastigotes
# protocol-notes: Activity against Leishmania infantum promastigotes (resazurin assay)
# Format: cell-based, Leishmania infantum (MHOM/MA/67/ITMAP-263)
# test-parameters: THP-1 CC50 / L. infantum promastigote IC50
outcome-measure: SI (promastigotes) CC50/Li IC50

Give the value of SI (promastigotes) CC50/Li IC50 reported for the following: CCCCCCCCCCCCCCCCOP(=O)([O-])OCC[N+](C)(C)C [MF, miltefosine, reference compound] 2.5

----------
// reported S.I. (selectivity index) for each item listed
# Tested on: bloodstream-form Trypanosoma brucei
# protocol-notes: Activity against bloodstream-form Trypanosoma brucei (Alamar Blue growth inhibition)
# Assay type: cell-based, Trypanosoma brucei (strain 427)
# test-parameters: ratio of IC50 values obtained with L6 cells and T. brucei
Field format: numeric only.

CC1CS(=O)(=O)CCN1/N=C/c1ccc([N+](=O)[O-])o1 (stereo not drawn) ... 7
O=C(NCc1ccc(C2C3CC4CC(C3)CC2C4)cc1)c1ccc([N+](=O)[O-])o1 (stereo not drawn) ... 95

Next:
Annotate the compound O=C(Cc1ccc(C23CC4CC(CC(C4)C2)C3)cc1)NCCn1cnc([N+](=O)[O-])n1 with its measured S.I. (selectivity index). 72

----------
# protocol-notes: Cytotoxicity on THP-1-derived macrophages (MTT assay)
# Format: cell-based
# test-parameters: human, THP-1-derived macrophages (PMA-differentiated), value or interval
Readings of CC50 at 72 h for the listed molecules

// worked examples, CC50 at 72 h included
O=C(Cn1ccnc1[N+](=O)[O-])NCc1ccc(C23CC4CC(CC(C4)C2)C3)cc1 ... 50 to 100 µM
O=C(NCCCn1cnc([N+](=O)[O-])n1)c1ccc(C23CC4CC(CC(C4)C2)C3)cc1 ... 50 to 100 µM
O=C(Cc1ccc(C23CC4CC(CC(C4)C2)C3)cc1)NCCn1cnc([N+](=O)[O-])n1 ... 50 to 100 µM
O=C(Cc1ccc(C23CC4CC(CC(C4)C2)C3)cc1)NCCn1ccnc1[N+](=O)[O-] ... 25 to 50 µM

Specify reported CC50 at 72 h for the molecule shown: CCCCCCCCCCCCCCCCOP(=O)([O-])OCC[N+](C)(C)C [MF, miltefosine, reference compound] 30 µM

----------
# Test system: bloodstream-form Trypanosoma brucei
# protocol-notes: Activity against bloodstream-form Trypanosoma brucei (Alamar Blue growth inhibition)
# Type: cell-based, Trypanosoma brucei (strain 427)
# test-parameters: Trypanosoma brucei; bloodstream form; concentration that inhibits growth by 90%; read-out: T. brucei IC90
outcome-measure: IC90 (nM)
Reply with just the number (in nM).

Example entries begin here.
O=C(Nc1ccc(C23CC4CC(CC(C4)C2)C3)cc1)c1ccc([N+](=O)[O-])o1 ... 220
O=C(CCc1ccc(C23CC4CC(CC(C4)C2)C3)cc1)NCCn1cnc([N+](=O)[O-])n1 ... 320
O=C(NCCn1cnc([N+](=O)[O-])n1)c1ccc(C23CC4CC(CC(C4)C2)C3)cc1 ... 360

We now examine a further compound.
Dear colleague, please send me the reported IC90 for O=C(Nc1ccc(C2C3CC4CC(C3)CC2C4)cc1)c1ccc([N+](=O)[O-])o1 (stereo not shown) when you can. 330

----------
# Tested on: bloodstream-form Trypanosoma brucei
# protocol-notes: Activity against bloodstream-form Trypanosoma brucei (Alamar Blue growth inhibition)
# Format: cell-based, Trypanosoma brucei (strain 427)
# test-parameters: Trypanosoma brucei; bloodstream form; concentration that inhibits growth by 90%; read-out: T. brucei IC90
Below, each entry is listed with its recorded IC90.
State the answer as a number, implicitly in µM.

O=C(Cn1cnc([N+](=O)[O-])n1)Nc1ccc(C23CC4CC(CC(C4)C2)C3)cc1 ... 0.91

Kindly indicate its recorded IC90. Item: O=C(CCc1ccc(C23CC4CC(CC(C4)C2)C3)cc1)NCCCn1cnc([N+](=O)[O-])n1 0.28

State its IC90: O=C(NCCc1ccc(C2C3CC4CC(C3)CC2C4)cc1)c1ccc([N+](=O)[O-])o1 (centres unmarked) 0.073

Provide only the value of recorded IC90 for O=C(Cc1ccc(C23CC4CC(CC(C4)C2)C3)cc1)NCCCn1cnc([N+](=O)[O-])n1 0.4

----------
# Tested on: T. cruzi epimastigotes
# protocol-notes: Activity against Trypanosoma cruzi epimastigotes (Alamar Blue growth inhibition)
# Assay type: cell-based, Trypanosoma cruzi (strain CL Brener)
# test-parameters: CL Brener
Lab note - cut at 1000 nM for IC90: criterion met if strictly below, criterion not met if not.

Worked examples follow.
O=C(NCCCn1cnc([N+](=O)[O-])n1)c1ccc(C23CC4CC(CC(C4)C2)C3)cc1 ... criterion not met
O=C(Cc1ccc(C23CC4CC(CC(C4)C2)C3)cc1)NCCn1cnc([N+](=O)[O-])n1 ... criterion met
O=C(NCc1ccc(C2C3CC4CC(C3)CC2C4)cc1)c1ccc([N+](=O)[O-])o1 (centres unmarked) ... criterion not met
O=C(Nc1ccc(C2C3CC4CC(C3)CC2C4)cc1)c1ccc([N+](=O)[O-])o1 (centres unmarked) ... criterion not met
O=C(CCc1ccc(C23CC4CC(CC(C4)C2)C3)cc1)NCCn1cnc([N+](=O)[O-])n1 ... criterion not met
O=C(NCCc1ccc(C2C3CC4CC(C3)CC2C4)cc1)c1ccc([N+](=O)[O-])o1 (centres unmarked) ... criterion not met
O=C(Cc1ccc(C23CC4CC(CC(C4)C2)C3)cc1)NCCCn1cnc([N+](=O)[O-])n1 ... criterion met
O=C(Cn1cnc([N+](=O)[O-])n1)Nc1ccccc1C12CC3CC(CC(C3)C1)C2 ... criterion not met
O=C(CCc1ccc(C23CC4CC(CC(C4)C2)C3)cc1)NCCCn1cnc([N+](=O)[O-])n1 ... criterion met

Find out if reported IC90 for O=C(NCCn1cnc([N+](=O)[O-])n1)c1ccc(C23CC4CC(CC(C4)C2)C3)cc1 is less than 1000 nM criterion not met

----------
# Test system: T. cruzi epimastigotes
# protocol-notes: Activity against Trypanosoma cruzi epimastigotes (Alamar Blue growth inhibition)
# Format: cell-based, Trypanosoma cruzi (strain CL Brener)
# test-parameters: CL Brener
outcome-measure: pIC50
pIC50 (log units): -log10 of the concentration in mol/L.

Answered examples (4):
O=C(NCCn1cnc([N+](=O)[O-])n1)c1ccc(C23CC4CC(CC(C4)C2)C3)cc1 [6a] ... 6.27
O=C(CCc1ccc(C23CC4CC(CC(C4)C2)C3)cc1)NCCCn1cnc([N+](=O)[O-])n1 [6f] ... 6.36
O=C(Cn1ccnc1[N+](=O)[O-])NCc1ccccc1 [Bzn, benznidazole, reference compound] ... 5.27
O=C(NCCc1ccc(C2C3CC4CC(C3)CC2C4)cc1)c1ccc([N+](=O)[O-])o1 (stereo not drawn) [2c] ... 6.55

Return pIC50 (reported value) for this compound: O=C(NCCCn1cnc([N+](=O)[O-])n1)c1ccc(C23CC4CC(CC(C4)C2)C3)cc1 [6d] 6.35

Identify measured pIC50 associated with O=C(Cc1ccc(C23CC4CC(CC(C4)C2)C3)cc1)NCCn1cnc([N+](=O)[O-])n1 [6b] 6.70

Read the entry O=C(NCc1ccc(C2C3CC4CC(C3)CC2C4)cc1)c1ccc([N+](=O)[O-])o1 (stereo not drawn) [2b] and write its reported pIC50. 6.25

For O=C(CCc1ccc(C23CC4CC(CC(C4)C2)C3)cc1)NCCn1cnc([N+](=O)[O-])n1 [6c] , write its pIC50. 6.35

For O=C(Nc1ccc(C2C3CC4CC(C3)CC2C4)cc1)c1ccc([N+](=O)[O-])o1 (stereo not drawn) [2a] , write its pIC50. 6.26

Please report the measured pIC50 for O=C(Cc1ccc(C23CC4CC(CC(C4)C2)C3)cc1)NCCCn1cnc([N+](=O)[O-])n1 [6e] 6.85

----------
# Lookup of reported IC50 keyed by entry
# System: L6 cells
# protocol-notes: Cytotoxic activity against rat skeletal myoblast L6 cells (Alamar Blue)
# Type: cell-based
# test-parameters: 120 h, cytotoxicity, 5 days
Return type: number; implicit unit µM.

O=C(NCCCn1cnc([N+](=O)[O-])n1)c1ccc(C23CC4CC(CC(C4)C2)C3)cc1 ... 22
O=C(CCc1ccc(C23CC4CC(CC(C4)C2)C3)cc1)NCCn1cnc([N+](=O)[O-])n1 ... 23
O=C(CCc1ccc(C23CC4CC(CC(C4)C2)C3)cc1)NCCCn1cnc([N+](=O)[O-])n1 ... 19
O=C(Cn1cnc([N+](=O)[O-])n1)Nc1ccc(C23CC4CC(CC(C4)C2)C3)cc1 ... 7.1
O=C(Nc1ccc(C2C3CC4CC(C3)CC2C4)cc1)c1ccc([N+](=O)[O-])o1 (centres unmarked) ... 0.47
O=C(NCc1ccc(C2C3CC4CC(C3)CC2C4)cc1)c1ccc([N+](=O)[O-])o1 (centres unmarked) ... 1.6
O=C(Cc1ccc(C23CC4CC(CC(C4)C2)C3)cc1)NCCCn1cnc([N+](=O)[O-])n1 ... 23
O=C(NCCc1ccc(C2C3CC4CC(C3)CC2C4)cc1)c1ccc([N+](=O)[O-])o1 (centres unmarked) ... 1.8

Name the recorded IC50 of the item O=C(NCCn1cnc([N+](=O)[O-])n1)c1ccc(C23CC4CC(CC(C4)C2)C3)cc1 in your answer. 28

Please give the documented IC50 of O=C(Cc1ccc(C23CC4CC(CC(C4)C2)C3)cc1)NCCn1cnc([N+](=O)[O-])n1 30
